# reported composite z-score; entries follow
system: Focal adhesion kinase 1 (Homo sapiens)
measurement_notes: small-molecule microarray binders of FAK, primary screen, biochemical, 635/667 nm fluorescence, BSA, DTT (AID 1130);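 note: composite of spot emission at 667 nm and signal to noise over triplicate slides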
particulars: PTK2 binding, 635 nm fluorescence, higher = more signal

compound: C=C(C)C1CCC(C(O)C2C=CC3C(=O)N(C)C(=O)C3N2Nc2cc(OC)c(OC)c(OC)c2)CC1 (configuration not stated)
system: Focal adhesion kinase 1 (Homo sapiens)
composite z-score: 0.573
//
compound: C=C(/C(=C/C[C@H](OC(=O)c1ccncc1)c1ccccc1OCCO)c1cnc2ccccc2c1)C(C)C
system: Focal adhesion kinase 1 (Homo sapiens)
composite z-score: 0.374
//
compound: CC(=O)NCCCC[C@@H]1NC(=O)[C@H]2C[C@@H](C(=O)NCCCCCNC(=O)CS)[C@@H](c3cccc(OCCO)c3)N2C1=O
system: Focal adhesion kinase 1 (Homo sapiens)
composite z-score: 0.598
//
compound: C=CCC(OC(C)=O)[C@@H]1[C@@H](N(Cc2cccc3ccccc23)C(=O)c2cccc3ccccc23)c2cc(OCCCO)ccc2N1C(=O)c1ccc2ccccc2c1 (some centres not stated)
system: Focal adhesion kinase 1 (Homo sapiens)
composite z-score: -0.0836
//
compound: O=C(CS)NCCCCCNC(=O)[C@@H]1C[C@@H]2C(=O)N[C@@H](Cc3ccccc3)C(=O)N2[C@@H]1c1cccc(OCCO)c1
system: Focal adhesion kinase 1 (Homo sapiens)
composite z-score: 0.334
//
compound: C=CCOC(=O)[C@H]1[C@@H]2C(=O)O[C@@H](c3ccccc3)[C@@H](c3ccccc3)N2[C@@H](c2ccc(OCCOC(=O)[C@H]3C[C@H]4C(=O)N[C@@H](CCCCNC(C)=O)C(=O)N4[C@H]3c3cccc(OCCO)c3)cc2)[C@]12C(=O)Nc1ccc(I)cc12
system: Focal adhesion kinase 1 (Homo sapiens)
composite z-score: 0.439
//
compound: CCOC(=O)C[C@H]1[C@H](OC(=O)c2ccccc2-c2ccccc2)[C@@H](NC(=O)c2ccc3ccccc3n2)c2cc(OCCCO)ccc2N1C(=O)c1ccccc1
system: Focal adhesion kinase 1 (Homo sapiens)
composite z-score: 0.185
//
compound: O=C1O[C@H](c2ccccc2)[C@H](c2ccccc2)N2[C@H]1[C@@H](C(=O)N1CCCCCCC1)[C@]1(C(=O)Nc3ccc(C#CC4(O)CCCCCC4)cc31)[C@H]2c1ccc(O)cc1
system: Focal adhesion kinase 1 (Homo sapiens)
composite z-score: 1.75
//
compound: COc1cc2c(cc1OC)CN(C(=O)[C@@H]1[C@H]3C(=O)O[C@H](c4ccccc4)[C@H](c4ccccc4)N3[C@H](c3ccc(O)cc3)[C@@]13C(=O)Nc1ccc(C#CCCO)cc13)CC2
system: Focal adhesion kinase 1 (Homo sapiens)
composite z-score: 0.584
//
compound: COCCOC(=O)N1C(=O)[C@@]2(c3cc(C#CCNC(N)=O)ccc31)[C@H](c1ccc(OCCO)cc1)N1[C@H](c3ccccc3)[C@H](c3ccccc3)OC(=O)[C@H]1[C@@H]2C(=O)NC[C@H](O)c1ccccc1
system: Focal adhesion kinase 1 (Homo sapiens)
composite z-score: 0.445
//
compound: CC1(C)C(=O)C(c2ccccc2)=C2CN3C(=O)N(CCc4ccccc4)C(=O)C3(Cc3ccc(F)cc3)C=C21 (configuration not stated)
system: Focal adhesion kinase 1 (Homo sapiens)
composite z-score: -0.104
//
compound: CC(C)C[C@@H]1NC(=O)[C@@H]2C[C@H](C(=O)NCCCCCC[N+](C)(C)C)[C@H](c3cccc(OCCO)c3)N2C1=O
system: Focal adhesion kinase 1 (Homo sapiens)
composite z-score: -0.219
